Assign pIC50 to each entry below.
target: EGFR (Homo sapiens (Human)); test: ErbB enzyme assay (CisBio HTRF KinEASE-TK), Assay 3; type: biochemical
Sequence (P00533 25-1210): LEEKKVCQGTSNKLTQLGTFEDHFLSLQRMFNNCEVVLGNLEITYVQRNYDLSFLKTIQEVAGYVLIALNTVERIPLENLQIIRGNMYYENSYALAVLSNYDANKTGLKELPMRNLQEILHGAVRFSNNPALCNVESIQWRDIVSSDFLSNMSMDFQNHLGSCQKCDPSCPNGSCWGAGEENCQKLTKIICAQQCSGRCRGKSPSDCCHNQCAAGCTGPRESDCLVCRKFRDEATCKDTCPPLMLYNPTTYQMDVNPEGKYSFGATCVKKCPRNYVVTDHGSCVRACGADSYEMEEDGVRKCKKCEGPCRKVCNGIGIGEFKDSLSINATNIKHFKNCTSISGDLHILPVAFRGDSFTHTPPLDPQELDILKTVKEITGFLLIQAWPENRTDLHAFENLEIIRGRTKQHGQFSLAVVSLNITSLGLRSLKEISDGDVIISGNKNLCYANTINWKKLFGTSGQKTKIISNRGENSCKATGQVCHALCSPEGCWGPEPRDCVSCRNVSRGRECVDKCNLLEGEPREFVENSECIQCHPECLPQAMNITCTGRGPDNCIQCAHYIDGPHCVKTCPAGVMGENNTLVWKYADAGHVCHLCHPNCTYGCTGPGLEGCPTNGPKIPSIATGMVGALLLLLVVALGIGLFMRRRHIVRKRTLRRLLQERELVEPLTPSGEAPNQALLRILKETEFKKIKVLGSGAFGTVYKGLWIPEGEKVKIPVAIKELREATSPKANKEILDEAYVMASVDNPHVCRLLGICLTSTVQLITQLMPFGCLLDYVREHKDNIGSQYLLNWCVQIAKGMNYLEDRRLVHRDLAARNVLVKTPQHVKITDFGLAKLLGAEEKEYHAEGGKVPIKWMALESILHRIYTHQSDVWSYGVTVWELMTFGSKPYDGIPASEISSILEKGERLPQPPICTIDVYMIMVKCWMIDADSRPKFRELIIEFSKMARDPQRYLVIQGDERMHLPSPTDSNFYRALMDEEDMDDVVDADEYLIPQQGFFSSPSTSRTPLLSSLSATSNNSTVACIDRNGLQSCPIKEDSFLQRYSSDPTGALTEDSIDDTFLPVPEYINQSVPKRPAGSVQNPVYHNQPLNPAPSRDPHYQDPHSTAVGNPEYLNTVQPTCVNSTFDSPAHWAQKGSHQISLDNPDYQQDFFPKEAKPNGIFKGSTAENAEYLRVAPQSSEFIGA
pIC50: −log10 of the molar value.

Noted for CN(c1ncc2ncnc(Nc3ccc(Oc4ccc5c(c4)ncn5C)c(Cl)c3)c2n1)C1COC1 : its pIC50 reads ≤ 5.00

Noted for Cn1cnc2cc(Oc3ccc(Nc4ncnc5cnc(N6CCOC7(CC7)C6)nc45)cc3Cl)ccc21 : its pIC50 reads ≤ 5.00

Noted for CON1CCN(c2ncc3ncnc(Nc4cc(C)c(Oc5ccc6c(c5)ncn6C)cc4F)c3n2)CC1 : its pIC50 reads ≤ 5.00

* * *

molecular target: ErbB2 with Exon 20 YVMA insertion (HER2-YVMA) (Homo sapiens (Human), UniProt P04626, INS775YVMA); experiment: Cellular phosphorylation assay, constitutive ErbB2 phosphorylation (Y1196) in engineered NIH 3T3 cells, Assay 4
Sequence (P04626 other isoform, or with tags, fused parts or gaps ins YVMA behind 775): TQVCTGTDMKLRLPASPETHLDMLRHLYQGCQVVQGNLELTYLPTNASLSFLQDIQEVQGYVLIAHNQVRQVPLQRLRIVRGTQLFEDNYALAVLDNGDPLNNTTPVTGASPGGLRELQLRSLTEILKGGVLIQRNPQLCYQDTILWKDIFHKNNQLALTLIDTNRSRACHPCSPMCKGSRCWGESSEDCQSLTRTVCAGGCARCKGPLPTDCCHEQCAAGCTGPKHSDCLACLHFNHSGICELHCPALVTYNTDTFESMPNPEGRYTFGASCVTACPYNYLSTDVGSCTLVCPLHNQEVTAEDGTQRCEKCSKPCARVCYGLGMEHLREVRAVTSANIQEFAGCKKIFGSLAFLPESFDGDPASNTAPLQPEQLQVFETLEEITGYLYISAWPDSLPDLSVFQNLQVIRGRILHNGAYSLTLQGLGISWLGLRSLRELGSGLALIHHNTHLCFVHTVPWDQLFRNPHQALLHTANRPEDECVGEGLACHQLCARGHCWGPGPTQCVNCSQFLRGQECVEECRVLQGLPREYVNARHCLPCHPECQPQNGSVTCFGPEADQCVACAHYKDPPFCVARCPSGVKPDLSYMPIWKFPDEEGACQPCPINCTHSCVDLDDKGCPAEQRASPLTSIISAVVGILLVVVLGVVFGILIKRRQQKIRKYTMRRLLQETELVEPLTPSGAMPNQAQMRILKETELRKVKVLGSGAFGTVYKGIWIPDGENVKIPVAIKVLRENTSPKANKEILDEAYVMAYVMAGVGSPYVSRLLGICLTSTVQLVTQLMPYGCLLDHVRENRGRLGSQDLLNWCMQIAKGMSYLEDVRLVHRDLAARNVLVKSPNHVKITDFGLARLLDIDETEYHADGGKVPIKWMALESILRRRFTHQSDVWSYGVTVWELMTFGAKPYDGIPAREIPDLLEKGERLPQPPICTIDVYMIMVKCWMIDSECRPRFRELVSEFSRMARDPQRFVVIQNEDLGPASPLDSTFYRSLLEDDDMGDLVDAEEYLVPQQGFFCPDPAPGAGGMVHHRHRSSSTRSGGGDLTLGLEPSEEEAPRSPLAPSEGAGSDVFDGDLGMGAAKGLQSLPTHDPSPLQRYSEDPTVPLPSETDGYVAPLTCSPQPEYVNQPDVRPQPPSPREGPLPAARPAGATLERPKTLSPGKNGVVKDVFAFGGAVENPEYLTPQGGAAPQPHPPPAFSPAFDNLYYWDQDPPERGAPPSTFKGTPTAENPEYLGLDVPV
MEASURED ENDPOINT: IC50 (nM)
Express the result in nM but write the number alone.

Noted for Cc1cc(Nc2ncnc3cnc(N(C)[C@@H]4CCCOC4)nc23)ccc1Oc1ccc2c(c1)ncn2C : its IC50 reads 5.8

Noted for Cc1cc(Nc2ncnc3cnc(N4C[C@@H](F)[C@@H](O)C4)nc23)ccc1Oc1ccc2c(c1)ncn2C : its IC50 reads 14.1

Noted for Cc1cnc(-c2ncc3ncnc(Nc4ccc(Oc5ccc6c(c5)ncn6C)c(C)c4)c3n2)s1 : its IC50 reads 53

Noted for Cc1cc(Nc2ncnc3cnc(N4CC[C@H](C(F)F)C4)nc23)ccc1Oc1ccn2ncnc2c1 : its IC50 reads 278

Noted for Cc1cc(Nc2ncnc3cnc(NCc4cnn(C)c4C)nc23)ccc1Oc1ccc2c(c1)ncn2C : its IC50 reads 61.5

Noted for Cc1cc(Nc2ncnc3cnc(NCC4CC4)nc23)ccc1Oc1ccc2c(c1)ncn2C : its IC50 reads 44.8

Noted for Cn1cnc2cc(Oc3ccc(Nc4ncnc5cnc(N6CC[C@H](CC#N)C6)nc45)cc3Cl)ccc21 : its IC50 reads 19.2

Noted for Cc1cc(Nc2ncnc3cnc(N4CCC45COC5)nc23)ccc1Oc1ccc2c(c1)ncn2C : its IC50 reads 9.3

Noted for Cc1cc(Nc2ncnc3cnc(N4C[C@H]5C[C@@H]4C[C@H]5O)nc23)ccc1Oc1ccc2c(c1)ncn2C : its IC50 reads 45.1

Noted for Cc1cc(Nc2ncnc3cnc(N(C)[C@@H]4CCC[C@H]4O)nc23)ccc1Oc1ccc2c(c1)ncn2C : its IC50 reads 45.6

Noted for Cc1cc(Nc2ncnc3cnc(N4CCN[C@@H](C(F)(F)F)C4)nc23)ccc1Oc1ccn2ncnc2c1 : its IC50 reads 69.9

Noted for Cc1cc(Nc2ncnc3cnc(N4CC[C@@H](S(C)(=O)=O)C4)nc23)ccc1Oc1ccc2c(c1)ncn2C : its IC50 reads 32.4

* * *

Assign efflux ratio at 2 h, 1 μM to each entry below.
biological target: MDR1 (P-gp) (Homo sapiens (Human), UniProt P08183); assay: MDR1 transfected MDCKII canine Mdr1 knockout permeability/efflux, Assay 7; settings: dog, MDCK-MDR1
Sequence (P08183 whole entry): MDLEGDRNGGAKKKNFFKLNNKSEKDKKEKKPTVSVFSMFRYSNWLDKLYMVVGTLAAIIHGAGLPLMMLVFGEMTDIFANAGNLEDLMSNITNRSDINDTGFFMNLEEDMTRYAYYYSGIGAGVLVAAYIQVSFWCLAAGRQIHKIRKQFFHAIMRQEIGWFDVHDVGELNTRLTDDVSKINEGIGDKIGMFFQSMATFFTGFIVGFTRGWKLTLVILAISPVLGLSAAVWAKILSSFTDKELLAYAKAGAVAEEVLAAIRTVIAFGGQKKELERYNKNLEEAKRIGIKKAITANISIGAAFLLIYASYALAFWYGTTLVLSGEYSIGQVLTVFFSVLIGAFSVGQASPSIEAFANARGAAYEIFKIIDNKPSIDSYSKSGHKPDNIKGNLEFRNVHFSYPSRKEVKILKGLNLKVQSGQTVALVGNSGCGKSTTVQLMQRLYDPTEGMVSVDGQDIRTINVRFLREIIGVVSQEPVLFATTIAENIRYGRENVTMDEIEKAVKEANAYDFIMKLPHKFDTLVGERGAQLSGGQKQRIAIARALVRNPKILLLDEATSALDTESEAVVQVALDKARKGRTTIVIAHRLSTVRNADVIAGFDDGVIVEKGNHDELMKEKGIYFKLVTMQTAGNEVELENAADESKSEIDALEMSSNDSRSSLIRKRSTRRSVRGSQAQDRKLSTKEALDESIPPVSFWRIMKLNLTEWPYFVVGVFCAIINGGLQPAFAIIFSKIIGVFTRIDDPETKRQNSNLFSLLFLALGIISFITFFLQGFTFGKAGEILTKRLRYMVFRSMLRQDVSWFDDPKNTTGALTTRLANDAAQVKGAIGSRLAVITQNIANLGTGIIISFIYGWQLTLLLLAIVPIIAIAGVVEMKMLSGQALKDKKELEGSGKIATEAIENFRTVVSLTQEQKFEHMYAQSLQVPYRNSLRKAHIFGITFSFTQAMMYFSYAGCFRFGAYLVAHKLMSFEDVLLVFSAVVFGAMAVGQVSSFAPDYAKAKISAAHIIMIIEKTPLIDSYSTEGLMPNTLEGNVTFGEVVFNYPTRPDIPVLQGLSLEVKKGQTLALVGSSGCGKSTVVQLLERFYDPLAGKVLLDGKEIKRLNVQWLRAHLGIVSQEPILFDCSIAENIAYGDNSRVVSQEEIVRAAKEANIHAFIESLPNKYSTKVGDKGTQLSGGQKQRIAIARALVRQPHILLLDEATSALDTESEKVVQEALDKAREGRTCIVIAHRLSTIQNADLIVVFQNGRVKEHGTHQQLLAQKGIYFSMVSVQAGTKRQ
In your answer, state the number alone without any accompanying words.

Noted for Clc1cc(Nc2ncnc3cnc(N4CCC45COC5)nc23)ccc1Oc1ccn2ncnc2c1 [Example 132] : its efflux ratio at 2 h, 1 μM reads 1.1

Noted for Cc1c(Oc2ccc3c(c2)ncn3C)ccc(Nc2ncnc3cnc(N4CCC[C@](C)(O)C4)nc23)c1F [Example 147] : its efflux ratio at 2 h, 1 μM reads 1

Noted for Cc1cc(Nc2ncnc3cnc(N4CC5(C4)CC(O)(C(F)F)C5)nc23)ccc1Oc1ccc2c(c1)ncn2C [Example 210] : its efflux ratio at 2 h, 1 μM reads 1.7

Noted for Cn1cnc2cc(Oc3ccc(Nc4ncnc5cnc(N6CCC7COCC76)nc45)cc3Cl)ccc21 (stereo not shown) [Example 114] : its efflux ratio at 2 h, 1 μM reads 1.5

Noted for Cc1cc(Nc2ncnc3cnc(N4C[C@@H](C)[C@H](O)C4)nc23)ccc1Oc1ccc2c(c1)ncn2C [Example 167] : its efflux ratio at 2 h, 1 μM reads 2.8

Noted for Cc1cc(Nc2ncnc3cnc(N(C)C[C@H](C)O)nc23)ccc1Oc1ccc2c(c1)ncn2C [Example 195] : its efflux ratio at 2 h, 1 μM reads 4.6

Noted for Cc1cc(Nc2ncnc3cnc(N4CC[C@@](O)(C(F)F)C4)nc23)ccc1Oc1ccc2c(c1)ncn2C (racemic) [Example 106] : its efflux ratio at 2 h, 1 μM reads 2.6

Noted for Cc1cc(Nc2ncnc3cnc(N4CCC(C)(O)CC4)nc23)ccc1Oc1ccn2ncnc2c1 [Example 120] : its efflux ratio at 2 h, 1 μM reads 1.3

Noted for Cc1cc(Nc2ncnc3cnc(N4CC[C@@H](C(C)(C)O)C4)nc23)ccc1Oc1ccc2c(c1)ncn2C [Example 113] : its efflux ratio at 2 h, 1 μM reads 0.9

Noted for Cc1cc(Nc2ncnc3cnc(N4C[C@H](O)C(F)(F)C4)nc23)c(F)cc1Oc1ccc2c(c1)ncn2C [Example 202] : its efflux ratio at 2 h, 1 μM reads 1.2

* * *

target: ErbB2 with Exon 20 YVMA insertion (HER2-YVMA) (Homo sapiens (Human), UniProt P04626, INS775YVMA); assay: Cellular phosphorylation assay, constitutive ErbB2 phosphorylation (Y1196) in engineered NIH 3T3 cells, Assay 4
MEASURED ENDPOINT: pIC50
Convention used: pIC50 is expressed as -log10 of the molar concentration.

Noted for Cc1cc(Nc2ncnc3cnc(N4CC5C6CCC(O6)C5C4)nc23)ccc1Oc1ccc2c(c1)ncn2C (centres unmarked) : its pIC50 reads 7.82

Noted for Cc1cc(Nc2ncnc3cnc(N(C)CCC(C)(C)O)nc23)ccc1Oc1ccc2c(c1)ncn2C : its pIC50 reads 8.03

Noted for Cc1cc(Nc2ncnc3cnc(NCC(C)(C)C#N)nc23)ccc1Oc1ccc2c(c1)ncn2C : its pIC50 reads 7.83

Noted for Cc1cc(Nc2ncnc3cnc(N4C(C)CCS4(=O)=O)nc23)ccc1Oc1ccc2c(c1)ncn2C.O=C(O)C(F)(F)F (centres unmarked) [Example 79, 2,2,2-trifluoroacetate] : its pIC50 reads 8.11

Noted for CON1CCC(Nc2ncc3ncnc(Nc4ccc(Oc5ccc6c(c5)ncn6C)c(C)c4)c3n2)C1 (centres unmarked) : its pIC50 reads 8.10

* * *

target: ErbB2 with Exon 20 YVMA insertion (HER2-YVMA) (Homo sapiens (Human), UniProt P04626, INS775YVMA); experiment: Cellular phosphorylation assay, constitutive ErbB2 phosphorylation (Y1196) in engineered NIH 3T3 cells, Assay 4
MEASURED ENDPOINT: IC50 (µM)
Express the result in µM but write the number alone.

Noted for Cc1cc(Nc2ncnc3cnc(N4CCC[C@@](C)(O)C4)nc23)ccc1Oc1ccn2ncnc2c1 [Example 414] : its IC50 reads 0.14

Noted for Cn1cnc2cc(Oc3ccc(Nc4ncnc5cnc(N6CC7(CCOC7)C6)nc45)cc3Cl)ccc21 [Example 442] : its IC50 reads 0.105

Noted for Clc1cc(Nc2ncnc3cnc(N4C5CCC4COC5)nc23)ccc1Oc1ccn2ncnc2c1 [Example 322] : its IC50 reads 0.102

Noted for Cc1cc(Nc2ncnc3cnc(N(C)CC(C)(C)O)nc23)c(F)cc1Oc1ccc2c(c1)ncn2C [Example 491] : its IC50 reads 0.0786

Noted for C[C@H]1CN(c2ncc3ncnc(Nc4ccc(Oc5ccn6ncnc6c5)c(Cl)c4)c3n2)CCO1 [Example 327] : its IC50 reads 0.105

Noted for Cc1cc(Nc2ncnc3cnc(N4C[C@H]5C[C@@H]4CO5)nc23)c(F)cc1Oc1ccc2c(c1)ncn2C [Example 481] : its IC50 reads 0.0742

* * *

biological target: ErbB2 with Exon 20 YVMA insertion (HER2-YVMA) (Homo sapiens (Human), UniProt P04626, INS775YVMA); assay: Cellular phosphorylation assay, constitutive ErbB2 phosphorylation (Y1196) in engineered NIH 3T3 cells, Assay 4
Assign IC50 to each entry below.
Express the result in nM but write the number alone.

Noted for Cc1cc(Nc2ncnc3cnc(N4CCN[C@@H](C(F)(F)F)C4)nc23)ccc1Oc1ccc2c(c1)ncn2C : its IC50 reads 17.7

Noted for O[C@@H]1C[C@H]2C[C@@H]1CN2c1ncc2ncnc(Nc3ccc(Oc4ccn5ncnc5c4)c(Cl)c3)c2n1 : its IC50 reads 186

Noted for Cc1cc(Nc2ncnc3cnc(N4CC[C@@H](C(F)F)C4)nc23)ccc1Oc1ccn2ncnc2c1 : its IC50 reads 218

Noted for Cc1cc(Nc2ncnc3cnc(N4CC[C@]45CCOC5)nc23)ccc1Oc1ccc2c(c1)ncn2C (single isomer, unassigned) [Example 93b] : its IC50 reads 13.9

Noted for Cn1cnc2cc(Oc3ccc(Nc4ncnc5cnc(N6CCC7COCC76)nc45)cc3Cl)ccc21 (centres unmarked) : its IC50 reads 20.1

Noted for Cc1cc(Nc2ncnc3cnc(N[C@H]4CNC[C@H]4F)nc23)ccc1Oc1ccc2c(c1)ncn2C : its IC50 reads 41.5

Noted for Cc1cc(Nc2ncnc3cnc(O[C@@H]4CNC[C@@H]4F)nc23)ccc1Oc1ccc2c(c1)ncn2C [Example 86] : its IC50 reads 261

Noted for CN(c1ncc2ncnc(Nc3ccc(Oc4ccn5ncnc5c4)c(Cl)c3)c2n1)[C@@H]1CCCOC1 : its IC50 reads 17.4

Sourced from patent US11834453B2
